# SYSTEM: ABCA2_C2385 (Homo sapiens)
# Construct: endogenous in cells; host or cells: 22Rv1
# Sequence (Q9BZC7 whole entry): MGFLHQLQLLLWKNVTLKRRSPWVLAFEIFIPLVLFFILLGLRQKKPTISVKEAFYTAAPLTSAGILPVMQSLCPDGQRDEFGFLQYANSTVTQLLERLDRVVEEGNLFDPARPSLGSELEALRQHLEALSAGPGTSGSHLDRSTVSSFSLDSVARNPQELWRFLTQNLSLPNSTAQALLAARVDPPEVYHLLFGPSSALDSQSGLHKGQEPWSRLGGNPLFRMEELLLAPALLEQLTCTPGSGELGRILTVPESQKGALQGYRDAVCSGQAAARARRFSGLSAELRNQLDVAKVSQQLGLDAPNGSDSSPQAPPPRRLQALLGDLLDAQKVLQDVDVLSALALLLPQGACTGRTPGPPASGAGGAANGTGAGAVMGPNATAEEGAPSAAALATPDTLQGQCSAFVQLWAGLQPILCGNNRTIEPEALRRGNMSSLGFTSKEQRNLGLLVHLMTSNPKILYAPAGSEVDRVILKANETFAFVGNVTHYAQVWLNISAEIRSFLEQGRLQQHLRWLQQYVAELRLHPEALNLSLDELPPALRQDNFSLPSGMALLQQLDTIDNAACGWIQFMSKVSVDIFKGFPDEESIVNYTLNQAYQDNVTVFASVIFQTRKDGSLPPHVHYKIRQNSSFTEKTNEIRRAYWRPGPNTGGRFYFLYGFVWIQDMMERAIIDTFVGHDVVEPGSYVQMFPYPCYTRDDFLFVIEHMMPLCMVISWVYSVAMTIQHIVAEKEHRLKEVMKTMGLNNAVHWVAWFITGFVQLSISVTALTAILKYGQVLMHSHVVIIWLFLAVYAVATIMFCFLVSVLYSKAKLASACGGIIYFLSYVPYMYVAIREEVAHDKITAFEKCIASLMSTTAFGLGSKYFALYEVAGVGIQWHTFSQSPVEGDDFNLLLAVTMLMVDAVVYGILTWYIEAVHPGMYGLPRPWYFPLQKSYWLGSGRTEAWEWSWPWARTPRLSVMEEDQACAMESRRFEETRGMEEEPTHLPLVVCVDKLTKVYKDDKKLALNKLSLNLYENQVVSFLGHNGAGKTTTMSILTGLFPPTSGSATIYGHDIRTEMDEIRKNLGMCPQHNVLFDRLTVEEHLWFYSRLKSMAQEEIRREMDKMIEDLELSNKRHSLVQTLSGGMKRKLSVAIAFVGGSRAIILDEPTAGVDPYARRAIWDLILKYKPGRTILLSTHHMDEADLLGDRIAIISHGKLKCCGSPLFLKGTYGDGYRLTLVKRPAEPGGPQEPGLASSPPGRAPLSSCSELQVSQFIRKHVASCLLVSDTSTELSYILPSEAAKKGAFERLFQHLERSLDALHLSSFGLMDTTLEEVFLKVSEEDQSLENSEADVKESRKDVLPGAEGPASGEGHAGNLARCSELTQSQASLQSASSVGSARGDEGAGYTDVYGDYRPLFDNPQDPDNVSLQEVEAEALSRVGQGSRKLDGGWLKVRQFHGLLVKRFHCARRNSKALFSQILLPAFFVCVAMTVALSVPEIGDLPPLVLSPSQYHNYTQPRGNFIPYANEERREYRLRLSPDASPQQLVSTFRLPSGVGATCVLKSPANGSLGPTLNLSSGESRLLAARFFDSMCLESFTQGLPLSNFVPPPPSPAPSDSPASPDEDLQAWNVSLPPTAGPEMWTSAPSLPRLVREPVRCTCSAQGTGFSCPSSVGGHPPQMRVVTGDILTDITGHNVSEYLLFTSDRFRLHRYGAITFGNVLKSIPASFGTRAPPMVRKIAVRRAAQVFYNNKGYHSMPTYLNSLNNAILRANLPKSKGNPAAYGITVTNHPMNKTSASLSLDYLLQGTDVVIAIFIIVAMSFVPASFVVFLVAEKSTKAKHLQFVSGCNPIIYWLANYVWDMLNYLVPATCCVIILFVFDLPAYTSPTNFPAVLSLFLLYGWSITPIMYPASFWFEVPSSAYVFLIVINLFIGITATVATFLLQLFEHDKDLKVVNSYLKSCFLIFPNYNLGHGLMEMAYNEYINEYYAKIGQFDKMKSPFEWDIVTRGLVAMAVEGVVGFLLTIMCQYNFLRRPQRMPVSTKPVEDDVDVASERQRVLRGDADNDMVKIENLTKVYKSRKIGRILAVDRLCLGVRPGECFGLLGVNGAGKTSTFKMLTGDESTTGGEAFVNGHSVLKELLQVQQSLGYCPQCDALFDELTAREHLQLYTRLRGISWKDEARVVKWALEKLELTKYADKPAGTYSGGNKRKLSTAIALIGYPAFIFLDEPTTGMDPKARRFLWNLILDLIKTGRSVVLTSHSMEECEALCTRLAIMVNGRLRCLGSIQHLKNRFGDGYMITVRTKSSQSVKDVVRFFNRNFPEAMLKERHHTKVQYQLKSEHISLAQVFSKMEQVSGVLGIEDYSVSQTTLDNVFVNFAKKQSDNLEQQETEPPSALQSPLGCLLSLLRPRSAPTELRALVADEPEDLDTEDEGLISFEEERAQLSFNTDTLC
# EXPERIMENT SUMMARY: IA-DTB cysteine engagement
# Assay type: binding
# PROTOCOL CONDITIONS: 22Rv1 cells, 20 μM probe, 1 h, relative to DMSO
# Protocol: Sample preparation: Cells (adherent: 15 cm dishes, suspension: 2 million cells/mL) were treated with electrophilic probes in situ for indicated times and concentrations, washed with ice-cold PBS, and flash frozen in liquid nitrogen. […] Whole cell lysates protein content was measured using a standard DC protein assay (Bio-Rad) and 500 μL (2 mg/mL protein content) were treated with 5 μL of 10 mM 1A-DTB (in DMSO) for 1 h at ambient temperature with occasional vortexing. […]
PROPERTY: % engagement ABCA2_C2385 (%)
Numbers only, in %.

Below are worked cases with known answers.
What value of % engagement ABCA2_C2385 has been reported for the following compound? C=CC(=O)N1C[C@H](c2ccc(Br)cc2)[C@H]1C(=O)Nc1cccc2cccnc12 [MY-3A]
42.5

One more compound: C=CC(=O)N1C[C@H](c2ccc(Br)cc2)[C@@H]1C(=O)Nc1cccc2cccnc12 [MY-1B]
78

Can you give me % engagement ABCA2_C2385 for all of these, one by one?
1. C=CC(=O)N1C[C@@H](c2ccc(Br)cc2)[C@H]1C(=O)Nc1cccc2cccnc12 [MY-1A]
2. C=CC(=O)N1C[C@H](c2ccc(Br)cc2)[C@H]1C(=O)Nc1cccc2cccnc12 [MY-3B]

1. 33
2. 72.5
